Where do the numbers come from? From PubChem BioAssay (NCI).

Tested on: M19-MEL melanoma
Test: NCI tumour cell line growth inhibition, 48 h
Measurement Kind: TGI

**Q:** State the recorded TGI for this entry: COC1CC(O)C(OC(=O)c2ccccc2)C(C)O1 (stereo unspecified)
**A:** > 100 µM

**Q:** What do you have for CC(C)c1cccc(C(C)C)c1N1C(=O)C(=O)C(c2nc3ccccc3o2)C(=O)C1=O ?
**A:** > 100 µM

**Q:** What do you have for CC1(C)O[C@@H](C[C@]2(C#N)C[C@H](CCl)OC(C)(C)O2)C[C@@H](C#N)O1 ?
**A:** > 100 µM

**Q:** What do you have for O=C(Nc1nn[nH]n1)c1nc(-c2ccccc2)cc(=O)[nH]1 ?
**A:** > 100 µM

**Q:** What do you have for Cc1c2ccncc2c(C)c2c1[nH]c1ccc(OCCN(C)C)cc12 ?
**A:** 2.17 µM

**Q:** What do you have for COc1ccccc1NC(=O)C1=C(C)NC(C)=C(C(=O)Nc2ccccc2OC)C1/C=C/c1ccccc1 ?
**A:** > 100 µM

**Q:** What do you have for N#Cc1ccccc1NC(=O)C(=O)C1NC(=S)NC1=O (stereo unspecified) ?
**A:** > 100 µM

**Q:** What do you have for COc1cc2c(c(OC)c1OC)-c1ccc(SC)c(=O)cc1[C@@H](NCc1ccc([N+](=O)[O-])cc1)CC2 ?
**A:** > 100 µM

**Q:** What do you have for COCCOc1cc(C)cc(/C=C(C)/C=C/C2=C(C)CCCC2(C)C)n1 ?
**A:** > 100 µM

**Q:** What do you have for NC1c2ccccc2Nc2ccccc21 ?
**A:** 13.9 µM

**Q:** What do you have for [N-]=[N+]=NCC(O)Cn1cnc2c(NC(=O)c3ccccc3)ncnc21 (stereo unspecified) ?
**A:** > 100 µM
